Cited source for all entries: the supplement of paper PMC9262897

# Test system: E. coli TESEC Mtb DapB
# PROTOCOL_TEXT: growth (OD600 after 10 h); higher = more growth (less inhibition)
# PROTOCOL_CONDITIONS: arabinose induction (level): High; compound 0.1 mM; raw OD600 reference: median of DMSO wells […], cell-free background 0.041
Counter-ions that a name gives are not always drawn.
ENDPOINT_LABEL: growth
Give your answer as a number; write no unit.

Some compounds with recorded growth:
Return reported growth; argument: C=C[C@H]1CN2CC[C@H]1C[C@@H]2[C@@H](O)c1ccnc2ccc(OC)cc12 [Quinidine hydrochloride monohydrate] 0.198

What about this compound? `CC(C)(Sc1cc(C(C)(C)C)c(O)c(C(C)(C)C)c1)Sc1cc(C(C)(C)C)c(O)c(C(C)(C)C)c1` 0.207

Note, next up: O=C(NCC1CCCCN1)c1cc(OCC(F)(F)F)ccc1OCC(F)(F)F (centres undefined) [Flecainide acetate] 0.178

---
What value of measured growth is listed for `N[C@@H](C(=O)N[C@@H]1C(=O)N2C(C(=O)O)=C(Cl)CC[C@H]12)c1ccccc1` ? 0.226

----------
Examples of compounds with documented growth follow.
# System: E. coli TESEC Mtb Alr
# PROTOCOL_TEXT: growth (OD600 after 10 h); higher = more growth (less inhibition)
# PROTOCOL_CONDITIONS: arabinose 10000 nM; compound 0.1 mM; raw OD600 reference: median of DMSO wells 0.264, cell-free background 0.041
Counter-ions that a name gives are not always drawn.
Please state the value as a number alone, without comment.

Use these answered entries as a reference point.
I have this compound here, `CCn1cc(C(=O)O)c(=O)c2cc(F)c(N3CCNCC3)cc21` , and I need its recorded growth. 0.0398

Here is the next compound: COc1ccc2c3c1O[C@H]1C[C@@H](O)C=C[C@@]31CCN(C)C2 [Galanthamine hydrobromide] 0.245

---
Using the record for `OCCN(CCO)c1nc(N2CCCCC2)c2nc(N(CCO)CCO)nc(N3CCCCC3)c2n1` , report its growth. 0.0482

Same thing, different compound: CC(C)(C)NC(=O)[C@@H]1C[C@@H]2CCCC[C@@H]2CN1C[C@@H](O)[C@H](Cc1ccccc1)NC(=O)[C@H](CC(N)=O)NC(=O)c1ccc2ccccc2n1 [Saquinavir mesylate] 0.0491

Then CC(C[N+](C)(C)C)OC(N)=O (stereo not drawn) [Bethanechol chloride] ? 0.28

----------
# System: E. coli TESEC Mtb Alr
# PROTOCOL_TEXT: growth (OD600 after 10 h); higher = more growth (less inhibition)
# PROTOCOL_CONDITIONS: arabinose 10000000 nM; compound 0.1 mM; raw OD600 reference: median of DMSO wells 0.146, cell-free background 0.041
Counter-ions that a name gives are not always drawn.
Short version: growth at least 0.1 is Condition met, less is Condition not met.

See these solved cases before continuing.
Evaluate Cc1cc(O)c(C(=O)N[C@@H](C(=O)N[C@@H]2C(=O)N3C(C(=O)O)=C(CSc4nnnn4C)CS[C@H]23)c2ccc(O)cc2)cn1 [Cefpiramide] : growth at minimum 0.1? Condition met

What about this compound? O=C1c2c(O)ccc(O)c2C(=O)c2c(NCCNCCO)ccc(NCCNCCO)c21 [Mitoxantrone dihydrochloride] Condition met

Follow-up entry: CC(COc1ccccc1)NC(C)C(O)c1ccc(O)cc1 (configuration not stated) [Isoxsuprine hydrochloride] Condition met

***
Assess whether reported growth for CC1(C)O[C@@H]2[C@@H](CO[C@@]3(COS(N)(=O)=O)OC(C)(C)O[C@@H]23)O1 [Topiramate] sits at 0.1 or higher. Condition met

Now the same for CC(C)NC[C@H](O)COc1ccc(CC(N)=O)cc1 [(S)-(-)-Atenolol] Condition met

One more compound: O=C(N[C@H](CO)[C@H](O)c1ccc([N+](=O)[O-])cc1)C(Cl)Cl [Chloramphenicol] Condition not met

What do we get for CC(C)(C)NC(=O)[C@@H]1C[C@@H]2CCCC[C@@H]2CN1C[C@@H](O)[C@H](Cc1ccccc1)NC(=O)[C@H](CC(N)=O)NC(=O)c1ccc2ccccc2n1 [Saquinavir mesylate] ? Condition not met

----------
# Tested on: E. coli TESEC Mtb Alr
# PROTOCOL_TEXT: growth (OD600 after 10 h); higher = more growth (less inhibition)
# PROTOCOL_CONDITIONS: arabinose 1000 nM; compound 0.1 mM; raw OD600 reference: median of DMSO wells 0.294, cell-free background 0.041
Where a name gives a salt, the structure may show the parent alone.
Recorded growth for the following molecules
API note: the answer field is a bare number with no unit suffix.

Some molecules with recorded growth:
Consider the molecule CNCC[C@@H](Oc1ccccc1C)c1ccccc1 [Tomoxetine hydrochloride] and give its measured growth. 0.254

// same read-out, input: Cc1onc(-c2ccccc2)c1C(=O)N[C@@H]1C(=O)N2[C@@H]1SC(C)(C)[C@@H]2C(=O)O [Oxacillin sodium] 0.298

Could you do the same for `CO[C@H]1C[C@H](O[C@H]2[C@H](C)[C@@H](O[C@@H]3O[C@H](C)C[C@H](N(C)C)[C@H]3OC(C)=O)[C@@H](C)C[C@@]3(CO3)C(=O)[C@H](C)[C@@H](OC(C)=O)[C@@H](C)[C@@H](C)OC(=O)[C@@H]2C)O[C@@H](C)[C@@H]1OC(C)=O` , please? 0.0647

CC(C)(C)NC[C@H](O)c1ccc(O)c(CO)c1 [Levalbuterol hydrochloride] , same question. 0.305

For CC1(C)[C@@H](OC(=O)CCC(=O)O)CC[C@]2(C)[C@H]3C(=O)C=C4[C@@H]5C[C@@](C)(C(=O)O)CC[C@]5(C)CC[C@@]4(C)[C@]3(C)CC[C@@H]12 [Carbenoxolone disodium salt] then? 0.275

Next up:
Name the recorded growth for `COc1ccc(C(=O)c2ccccc2)c(O)c1` . 0.148

----------
# System: E. coli TESEC Mtb DapB
# PROTOCOL_TEXT: growth (OD600 after 10 h); higher = more growth (less inhibition)
# PROTOCOL_CONDITIONS: arabinose induction (level): High; compound 0.1 mM; raw OD600 reference: median of DMSO wells […], cell-free background 0.041
Counter-ions that a name gives are not always drawn.
ENDPOINT_LABEL: growth
Lab note: record just the number, no unit beside it.

Before answering, review these 5 worked examples.
Request the reported growth associated with CCN(CC)CCNC(=O)c1cc(S(C)(=O)=O)ccc1OC [Tiapride hydrochloride] 0.183

And CC(C)NC[C@H](O)COc1cccc2ccccc12 [(S)-propranolol hydrochloride] ? 0.173

Same question, CC(COc1ccccc1)N(CCCl)Cc1ccccc1 (configuration not stated) [Phenoxybenzamine hydrochloride] this time 0.175

Likewise for CC(CNC1CCCCC1)OC(=O)c1ccccc1 (configuration not stated) [Hexylcaine hydrochloride] ? 0.2

Check CN(N=O)C(=O)N[C@H]1C(O)O[C@H](CO)[C@@H](O)[C@@H]1O (mixture of isomers) too. 0.192

Consider the record given below.
Quick one: growth of `CC/C(=C(/CC)c1ccc(O)cc1)c1ccc(O)cc1` ? 0.171

----------
# Test system: E. coli TESEC Mtb Alr
# PROTOCOL_TEXT: growth (OD600 after 10 h); higher = more growth (less inhibition)
# PROTOCOL_CONDITIONS: arabinose 100 nM; compound 0.1 mM; raw OD600 reference: median of DMSO wells 0.413, cell-free background 0.052
Please enter Y where growth is greater than or equal to 0.4, and N where it is lower.

Would you say NS(=O)(=O)c1cc2c(cc1Cl)NC(CC1CCCC1)NS2(=O)=O (stereo not drawn) [Cyclopenthiazide] shows growth at minimum 0.4? N

---
hey, is growth for this one >= 0.4? N[C@@H](C(=O)N[C@@H]1C(=O)N2C(C(=O)O)=C(Cl)CS[C@H]12)c1ccccc1 [Cefaclor hydrate] N

Same read-out for COc1ccc(CC2c3cc(OC)c(OC)cc3CC[N+]2(C)CCC(=O)OCCCCCOC(=O)CC[N+]2(C)CCc3cc(OC)c(OC)cc3C2Cc2ccc(OC)c(OC)c2)cc1OC (stereo not drawn) [Atracurium besylate] ? Y

----------
We begin with a simple list: items and their reported growth.
# Tested on: E. coli TESEC Mtb Alr
# PROTOCOL_TEXT: growth (OD600 after 10 h); higher = more growth (less inhibition)
# PROTOCOL_CONDITIONS: arabinose 10000000 nM; compound 0.1 mM; raw OD600 reference: median of DMSO wells […], cell-free background 0.052
Where a name gives a salt, the structure may show the parent alone.
Note: the reply should be a number with no unit written.

Requested read-out: growth. Entry: `Nc1ccc(S(=O)(=O)Nc2ccnn2-c2ccccc2)cc1` 0.233

And then `Cn1c(=O)c2c(ncn2CC(=O)O)n(C)c1=O` , what is it? 0.347

// repeat for `Nc1cc(C(Cl)=C(Cl)Cl)c(S(N)(=O)=O)cc1S(N)(=O)=O` and report 0.335

Queued: `CN(C)CCOc1ccc(/C(=C(/CCCl)c2ccccc2)c2ccccc2)cc1` 0.0577

Same for `O=c1[nH]c(=O)n([C@H]2C[C@H](O)[C@@H](CO)O2)cc1I` 0.376

Continuing:
Any idea what its growth is? The molecule is `Oc1ccc(OCc2ccccc2)cc1` 0.304

Also Clc1cccc(Cl)c1NC1=NCCN1 [Clonidine hydrochloride] , if possible. 0.375

Next record, please: `COc1ccc(C(=O)c2ccccc2O)c(O)c1` 0.152

One more molecule: `CCCCOC(=O)c1ccc(N)cc1` 0.344

Record: CCN(CCCc1ccccc1)CCCc1ccccc1 [Alverine citrate salt] 0.328
